# SYSTEM_UNDER_TEST: DVL1 binding to FZD4 (Homo sapiens, UniProt O14640)
# Sequence (O14640 whole entry): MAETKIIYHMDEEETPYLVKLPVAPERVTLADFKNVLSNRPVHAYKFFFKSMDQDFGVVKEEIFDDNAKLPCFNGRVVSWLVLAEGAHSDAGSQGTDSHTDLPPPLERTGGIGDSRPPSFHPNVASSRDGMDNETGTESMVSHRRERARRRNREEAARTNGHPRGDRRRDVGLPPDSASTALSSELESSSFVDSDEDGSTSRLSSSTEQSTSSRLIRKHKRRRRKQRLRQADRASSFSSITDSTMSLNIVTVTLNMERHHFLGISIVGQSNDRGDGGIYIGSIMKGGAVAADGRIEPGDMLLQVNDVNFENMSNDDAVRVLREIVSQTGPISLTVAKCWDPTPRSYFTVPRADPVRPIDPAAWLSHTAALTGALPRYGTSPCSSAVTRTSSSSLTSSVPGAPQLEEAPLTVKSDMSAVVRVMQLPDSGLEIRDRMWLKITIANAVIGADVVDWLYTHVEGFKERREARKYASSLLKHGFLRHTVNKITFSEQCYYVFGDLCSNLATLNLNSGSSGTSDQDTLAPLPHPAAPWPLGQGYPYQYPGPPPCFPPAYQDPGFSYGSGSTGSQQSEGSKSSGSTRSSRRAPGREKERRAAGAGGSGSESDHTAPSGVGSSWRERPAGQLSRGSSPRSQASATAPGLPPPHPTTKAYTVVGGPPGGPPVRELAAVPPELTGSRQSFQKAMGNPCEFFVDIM
# ASSAY_EXPLANATION: Inhibition of DVL1 (DVL-GFP) recruitment by FZD4 at the plasma membrane of HEK293 cells
# CONDITION_SUMMARY: HEK293 cells co-transfected with HA-FZD4 and GFP-DVL-1; 24 h treatment; read-out: EC50 ± SD DVL1 Binding Inhibition
# Method: HEK293 cells were seeded in 96-well tissue culture plates at a density of 5 × 10 ^3/well. After 16–24 h seeding, cells were co-transfected with HA-FZD4-wt (0.04 µg/well) and GFP-tagged DVL-1 (0.04 µg/well) using PEI (0.25 µL/well) in a final volume of 100 µL/well. […] Inhibition of DVL recruitment was measured by counting the percentage of cells losing GFP-DVL-1 localization on the PM. […]
ASSAY_READOUT: pEC50
Please report pEC50 as the negative decimal logarithm of the molar concentration, giving only the number.

# count of solved cases: 2
                                   compound  assay_readout  numeric_result
0  O=C(Nc1ccc(CO)cc1)c1[nH]c2ccc(Cl)cc2c1Cc1ccccc1 [Compound 2, reference compound]          pEC50            5.29
1  Cc1cc(C)cc(S(=O)(=O)c2c(C(=O)NC(C)C(=O)NCc3ccncc3)[nH]c3ccc(Cl)cc23)c1 (stereo not shown) [Compound 1]          pEC50            6.13

Reported pEC50 for Cc1cc(C)cc(S(=O)(=O)c2c(C(=O)N[C@H](C)C(=O)NCc3ccncc3)[nH]c3ccc(Cl)cc23)c1 [(R)-1] : what is it?
4.53

Next record, please: Cc1cc(C)cc(S(=O)(=O)c2c(C(=O)N[C@@H](C)C(=O)NCc3ccncc3)[nH]c3ccc(Cl)cc23)c1 [(S)-1]
6.31

* * *

# System: SW620 cells
# ASSAY_EXPLANATION: Cell growth inhibition, XTT assay, SW620
# Format: cell-based
# CONDITION_SUMMARY: Homo sapiens, SW-620; incubation time 72 h
Collected pEC50 values appear next to each entry.
Please report pEC50 as the negative decimal logarithm of the molar concentration, giving only the number.

>>> print(df.to_string())
                                   molecule  numeric_result
0  Cc1cc(C)cc(S(=O)(=O)c2c(C(=O)N[C@H](C)C(=O)NCc3ccncc3)[nH]c3ccc(Cl)cc23)c1 [(R)-1]            4.26
1  Cc1cc(C)cc(S(=O)(=O)c2c(C(=O)NC(C)C(=O)NCc3ccncc3)[nH]c3ccc(Cl)cc23)c1 (stereo not drawn)            4.41

Let us move to another entry and its pEC50.
Reported pEC50 for Cc1cc(C)cc(S(=O)(=O)c2c(C(=O)N[C@@H](C)C(=O)NCc3ccncc3)[nH]c3ccc(Cl)cc23)c1 [(S)-1] : what is it?
4.34
